B1: POU domain, class 3, transcription factor 3, residues 320 to 388; numbered along this chain, P20264 (parent)
chain: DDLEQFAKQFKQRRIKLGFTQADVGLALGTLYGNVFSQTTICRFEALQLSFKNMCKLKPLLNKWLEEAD

Variants of: B1
EXPERIMENT_NOTES: abundance fitness (aPCA) (normalised: wild type 0, dead -1); higher = more abundant; growth selection in yeast, the domain comes from the species named
CONDITION: Homo sapiens
MEASUREMENT_NAME: abundance fitness
// keep it numeric: no unit symbol after the value

Answered examples (4):
mutation_list=G25T measurement_name="abundance fitness" test_result=-0.36
mutation_list=V35G measurement_name="abundance fitness" test_result=-0.204
mutation_list=A27S measurement_name="abundance fitness" test_result=-0.239
mutation_list=Q38T measurement_name="abundance fitness" test_result=0.079

So what does the record say about abundance fitness for G29M ?
-0.427

For the variant C42I , what abundance fitness is on record?
0.11

Sample D23Y — what was its abundance fitness?
-0.778

Reported abundance fitness for L26C : what is it?
-0.045

Could you tell me which abundance fitness is on file for T40Y ?
-0.59

Item T39D has what recorded abundance fitness?
0.014

Given the variant A27R , what is its reported abundance fitness?
0.031
